Hey, just so you know, these numbers are from paper PMC9902548.

pIC50: −log10 of the molar value.
So I've got pIC50 readings for COX-2 (Homo sapiens), take a look.
MEASURE: pIC50

COc1cc(O)c2c(c1)O[C@H](c1ccc(O)cc1)CC2=O [Compound C1, (2S)-5,4'-dihydroxy-7-methoxyflavanone] | 4.95

(A) O=C(C=Cc1ccccc1)OCC1OC(OC(=O)C=Cc2ccccc2)C(O)C(O)C1O [Compound C5, 1,6-dicinnamoyl-O-α-D-glucopyranoside]
(B) O=C(O)/C=C/c1ccccc1 [Compound C2, (E)-cinnamic acid]
(C) COc1cc(O)c2c(c1)O[C@H](c1ccc(O)cc1)[C@@H](O)C2=O
Query block: Hey, can you sort those molecules up there by pIC50, smallest first? Answer by listing the labels in the order asked for.
Result block: B, C, A
(B: 4.46, C: 5.07, A: 5.58)
